Molecular target: δ opioid receptors (MVD) (Mus musculus)
Construct: from tissue; host or cells: mouse (ICR) isolated vas deferens
Sequence (P32300 whole entry): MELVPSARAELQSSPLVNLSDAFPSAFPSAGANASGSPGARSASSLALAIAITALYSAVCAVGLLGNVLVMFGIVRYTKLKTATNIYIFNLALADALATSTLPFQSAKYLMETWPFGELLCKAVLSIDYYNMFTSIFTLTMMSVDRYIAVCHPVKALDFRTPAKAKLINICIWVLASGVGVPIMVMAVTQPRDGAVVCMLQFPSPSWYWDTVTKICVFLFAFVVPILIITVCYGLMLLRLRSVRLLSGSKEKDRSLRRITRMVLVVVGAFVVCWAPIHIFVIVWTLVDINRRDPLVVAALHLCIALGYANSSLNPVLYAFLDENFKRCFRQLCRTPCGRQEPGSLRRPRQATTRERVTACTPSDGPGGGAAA
Test: Mouse isolated vas deferens (MVD) assay, opioid agonist
Peptide text beside a SMILES is read from it.
Mark True only when IC50 stays strictly below 10 nM. Values equal to the cut-off are False.

For orientation, consider the following solved cases.
COMPOUND	LABEL
CSCC[C@H](NC(=O)[C@H](Cc1ccccc1)NC(=O)CNC(=O)[C@@H](C)NC(=O)[C@@H](N)Cc1c(C)cc(O)cc1C)C(=O)N1CCC[C@H]1C(=O)N[C@@H](CC(C)C)C(=O)N[C@@H](Cc1c[nH]c2ccccc12)C(=O)NCc1ccccc1	True
CSCC[C@H](NC(=O)[C@H](Cc1ccccc1)NC(=O)CNC(=O)[C@@H](CS)NC(=O)[C@@H](N)Cc1ccc(O)cc1)C(=O)N1CCC[C@H]1C(=O)N[C@@H](CC(C)C)C(=O)N[C@@H](Cc1c[nH]c2ccccc12)C(=O)OCc1cc(C(F)(F)F)cc(C(F)(F)F)c1 [TY031] (HELM PEPTIDE1{Y.[dC].G.F.M.P.L.W.[FC(F)(F)c1cc(CO[*:1])cc(C(F)(F)F)c1]}$$$$V2.0; N-terminus assumed)	False
Cc1cc(O)cc(C)c1C[C@H](N)C(=O)N[C@H](C)C(=O)N[C@@H](Cc1c[nH]c2ccccc12)C(=O)OCc1cc(C(F)(F)F)cc(C(F)(F)F)c1	False
CC(C)C[C@H](NC(=O)[C@@H]1CCCN1C(=O)CNC(=O)[C@H](Cc1ccccc1)NC(=O)CNC(=O)[C@@H](C)NC(=O)[C@@H](N)Cc1ccc(O)cc1)C(=O)N[C@@H](Cc1c[nH]c2ccccc12)C(=O)OCc1cc(C(F)(F)F)cc(C(F)(F)F)c1 [TY006] (HELM PEPTIDE1{Y.[dA].G.F.G.P.L.W.[FC(F)(F)c1cc(CO[*:1])cc(C(F)(F)F)c1]}$$$$V2.0)	False
CSCC[C@H](NC(=O)[C@H](Cc1ccccc1)NC(=O)CNC(=O)[C@@H](C)NC(=O)[C@@H](N)Cc1ccc(O)cc1)C(=O)N1CCC[C@H]1C(=O)N[C@@H](CC(C)C)C(=O)N[C@@H](Cc1c[nH]c2ccccc12)C(=O)N(C)Cc1cc(C(F)(F)F)cc(C(F)(F)F)c1	False

Prompt: Quick check: IC50 of CSCC[C@H](NC(=O)[C@H](Cc1ccccc1)NC(=O)CNC(=O)[C@@H](C)NC(=O)[C@@H](N)Cc1c(C)cc(O)cc1C)C(=O)N1CCC[C@H]1C(=O)N[C@@H](CC(C)C)C(=O)N[C@@H](Cc1c[nH]c2ccccc12)C(=O)NCc1cc(C(F)(F)F)cc(C(F)(F)F)c1 under 10 nM?
Response: True
